- Tested on: ACHN
- experimental_protocol: minimum viability across doses, drug alone, relative to DMSO (fraction); higher = less growth inhibition
- protocol_conditions: treatment: drug alone; 5 days
readout_kind: minimum viability across doses
Reply with the value as a number alone.

Worked cases, answers included:
Cl.Cl.Clc1ccc(Nc2nnc(Cc3ccncc3)c3ccccc23)cc1 [Vatalanib dihydrochloride (PTK787)]    0.587
CN(C)CCOc1ccc(-c2nc(-c3ccncc3)c(-c3ccc4c(c3)CC/C4=N/O)[nH]2)cc1    0.167
CCc1cccc(CC)c1NC(=O)N1Cc2[nH]nc(NC(=O)c3ccc(N4CCN(C)CC4)cc3)c2C1    0.233
CC(=O)Nc1ccc(NC(=S)NC(=O)c2ccc(C(C)(C)C)cc2)cc1 [Tenovin-1]    0.515
O=C(c1ccc(/C=C/c2n[nH]c3ccccc23)cc1)N1CCNCC1 [KW 2449]    0.215

Inquiry: Note minimum viability across doses for the compound shown: COCC(=O)NC/C=C/c1ccc2ncnc(Nc3ccc(Oc4ccc(C)nc4)c(C)c3)c2c1
Reply text: 0.61

Inquiry: Note minimum viability across doses for the compound shown: CS(=O)(=O)O.N#CC1(c2ccc(NC(=O)c3cccnc3NCc3ccncc3)cc2)CCCC1 [Apatinib (YN968D1)]
Reply text: 0.676

Inquiry: Note minimum viability across doses for the compound shown: CNC(=O)c1ccc(C)c(-n2c(C)cc(OCc3ccc(F)cc3F)c(Br)c2=O)c1
Reply text: 0.464
